# tested.target: glycerol-3-phosphate dehydrogenase (GPDH) (Rattus norvegicus)
# Construct: The activity of GPDH in intact mitochondria (0.3 mg/mL) was measured; from tissue; host or cells: rat skeletal muscle mitochondria (Wistar, Harlan Laboratories)
# Sequence (P35571 43-727): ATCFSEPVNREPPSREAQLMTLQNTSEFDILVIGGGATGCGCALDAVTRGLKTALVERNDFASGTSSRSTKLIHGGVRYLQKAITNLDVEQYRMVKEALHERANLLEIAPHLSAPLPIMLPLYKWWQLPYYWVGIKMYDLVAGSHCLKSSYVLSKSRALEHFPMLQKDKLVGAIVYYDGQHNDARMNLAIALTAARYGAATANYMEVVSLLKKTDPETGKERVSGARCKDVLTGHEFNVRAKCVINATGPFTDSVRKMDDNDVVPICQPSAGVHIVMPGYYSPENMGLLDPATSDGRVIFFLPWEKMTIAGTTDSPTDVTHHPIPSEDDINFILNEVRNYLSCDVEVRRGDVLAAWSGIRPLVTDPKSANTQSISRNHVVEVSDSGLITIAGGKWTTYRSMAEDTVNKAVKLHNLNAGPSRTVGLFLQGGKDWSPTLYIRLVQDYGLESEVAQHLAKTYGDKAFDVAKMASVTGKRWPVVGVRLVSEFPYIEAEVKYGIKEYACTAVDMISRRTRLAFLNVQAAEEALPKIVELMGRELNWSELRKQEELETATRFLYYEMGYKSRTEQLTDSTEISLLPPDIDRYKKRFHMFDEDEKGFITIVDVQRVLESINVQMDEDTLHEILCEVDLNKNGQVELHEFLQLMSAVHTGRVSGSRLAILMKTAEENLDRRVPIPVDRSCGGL
# protocol.summary: High-throughput screen: ROS production from glycerol-3-phosphate dehydrogenase (GPDH)
# Type: biochemical
# test.conditions: Table 8; percent change in ROS from DMSO controls
quantity: GPDH
Answers are plain numbers.

For every item below, please supply its GPDH.
1. CCN(CC)CCN(CC)Cc1ccc(Cl)cc1Cl
2. Cl.OC12CCCCC1C(c1cccc(Cl)c1)NCC2 (centres unmarked)
3. Cc1cc(C)c(S(=O)(=O)N2CCCC2=O)c(C)c1
4. c1cc2c3c(ccc(CSCCc4ccncc4)c3c1)CC2
5. O=S(=O)(Nc1ccc(Br)cc1)c1ccc(C2CCCCC2)cc1
6. O=C(O)CCC(=O)Nc1ccc(-c2nc3ccccc3o2)cc1
7. Cc1ccc(S(=O)(=O)Nc2nnc(C)s2)cc1
8. C=CCSc1nc(N)c(C#N)c(CC)c1C#N

Out:
["−2.5", "−12.0", "−4.2", "−4.9", "−1.8", "−12.2", "−0.4", 5.6]

For every item below, please supply its GPDH.
1. O=C(O)C1CCCCC1C(=O)NC1CCCCCCC1 (centres unmarked)
2. O=[N+]([O-])c1ccc(Oc2ccc(S(=O)(=O)Nc3ccc(F)cc3)cc2)cc1
3. COc1ccc(Cl)cc1N(Cc1ccccc1)Cc1ccccc1
4. O=C(O)/C=C/C(=O)Nc1ccc(/C=C/c2ccccc2)cc1
5. Oc1nnc(Cc2ccncc2)c2ccccc12
6. CCCCN(Cc1ccccc1)Cc1cc(Cl)cc(Cl)c1O
7. CCCCN(Cc1ccccc1)Cc1cc(OC)c(OC)cc1[N+](=O)[O-]
8. CCCCN(Cc1ccccc1)Cc1cccc(Oc2ccc(Cl)cc2)c1

Out:
0.7
−0.2
−4.0
−12.7
1.7
3.7
−1
−3.4

For every item below, please supply its GPDH.
1. CCN1CCN(C2CCC(C(C)(C)C)CC2)CC1 (centres unmarked)
2. CN(C)CCN(Cc1ccccc1)Cc1ccccc1Br
3. COc1ccc(C2C(C#N)=C(N)Oc3c2c(=O)oc2ccccc32)cc1O (centres unmarked)
4. Cc1ccccc1NS(=O)(=O)c1ccc(-c2ccc(S(=O)(=O)Nc3ccccc3C)cc2)cc1

Out:
1. −2.6
2. −1.0
3. −3.5
4. 0.5

* * *

Could you please report measured inhibition at 2.5 µM for the items listed next?
# tested.target: outer ubiquinone binding site of complex III (IIIQO) (Rattus norvegicus, UniProt P00159+P20788)
# Construct: freshly isolated muscle mitochondria were assayed; from tissue; host or cells: rat skeletal muscle mitochondria (Wistar, Harlan Laboratories)
# protocol.summary: High-throughput screen: ROS production from outer ubiquinone binding site of complex III (IIIQO)
# Type: biochemical
# test.conditions: Table 9; percent change in ROS from DMSO controls; read-out: IIIQo
Please answer using a numeric value trailed by its unit.

Some entries whose results are on file:
1) O=C(Nc1ccccc1F)[C@@H]1C2C=CC(C2)[C@@H]1C(=O)O (stereo partly shown)
-1.2%
2) O=C(O)/C=C/C(=O)Nc1ccc(/C=C/c2ccccc2)cc1
-10%
3) Cc1ccc(S(=O)(=O)Nc2nnc(C)s2)cc1
0.1%
4) CCCN(CCO)Cc1ccc2c(c1)c1ccccc1n2CC
7.5%
5) CC(C)(C)NS(=O)(=O)c1ccc2c(c1)C(=O)c1ccccc1C2=O
-1%

For every item below, please supply its inhibition at 2.5 µM.
1. Fc1ccc(SCCc2ccccn2)cc1
2. Cc1ccc(CCSc2ccc(F)cc2)cn1
3. Oc1nnc(Cc2ccncc2)c2ccccc12

Out:
1: 24.1%; 2: 34.9%; 3: -5.4%

For every item below, please supply its inhibition at 2.5 µM.
1. Fc1ccc(N2CCN(CC(c3ccccc3)c3ccccc3)CC2)cc1
2. Cc1ccc(C)c(CN(CCCN(C)C)CCCN(C)C)c1

Out:
1: 26.8%; 2: -2.5%
